Molecular target: GABA-A receptor; alpha-5/beta-3/gamma-2 (Homo sapiens, UniProt P18507+P28472+P31644)
Sequence (P18507 whole entry): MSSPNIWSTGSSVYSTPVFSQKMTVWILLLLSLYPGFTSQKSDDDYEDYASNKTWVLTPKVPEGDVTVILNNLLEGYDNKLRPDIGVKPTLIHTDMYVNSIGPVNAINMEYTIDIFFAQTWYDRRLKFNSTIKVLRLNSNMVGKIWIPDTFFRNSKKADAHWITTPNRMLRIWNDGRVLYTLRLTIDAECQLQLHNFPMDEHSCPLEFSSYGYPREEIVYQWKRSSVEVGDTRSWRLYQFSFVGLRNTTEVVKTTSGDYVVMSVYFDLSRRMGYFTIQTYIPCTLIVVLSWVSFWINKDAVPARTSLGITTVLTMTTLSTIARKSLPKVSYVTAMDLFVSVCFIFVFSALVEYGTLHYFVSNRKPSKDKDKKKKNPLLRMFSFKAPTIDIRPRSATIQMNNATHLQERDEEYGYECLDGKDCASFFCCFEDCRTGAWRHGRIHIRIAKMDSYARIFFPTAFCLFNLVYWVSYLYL
Sequence (P28472 whole entry): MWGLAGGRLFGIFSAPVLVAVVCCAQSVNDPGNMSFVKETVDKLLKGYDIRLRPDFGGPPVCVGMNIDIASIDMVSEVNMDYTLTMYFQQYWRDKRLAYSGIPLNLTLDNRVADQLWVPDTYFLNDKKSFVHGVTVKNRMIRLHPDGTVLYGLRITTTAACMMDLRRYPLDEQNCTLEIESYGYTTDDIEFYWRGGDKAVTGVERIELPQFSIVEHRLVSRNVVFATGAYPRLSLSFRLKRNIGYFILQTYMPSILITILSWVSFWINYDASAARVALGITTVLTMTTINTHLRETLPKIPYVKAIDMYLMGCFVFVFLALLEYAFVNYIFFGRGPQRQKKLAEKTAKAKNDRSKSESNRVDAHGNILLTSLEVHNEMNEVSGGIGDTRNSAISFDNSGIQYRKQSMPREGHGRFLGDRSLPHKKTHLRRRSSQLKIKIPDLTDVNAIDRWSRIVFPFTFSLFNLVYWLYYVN
Sequence (P31644 whole entry): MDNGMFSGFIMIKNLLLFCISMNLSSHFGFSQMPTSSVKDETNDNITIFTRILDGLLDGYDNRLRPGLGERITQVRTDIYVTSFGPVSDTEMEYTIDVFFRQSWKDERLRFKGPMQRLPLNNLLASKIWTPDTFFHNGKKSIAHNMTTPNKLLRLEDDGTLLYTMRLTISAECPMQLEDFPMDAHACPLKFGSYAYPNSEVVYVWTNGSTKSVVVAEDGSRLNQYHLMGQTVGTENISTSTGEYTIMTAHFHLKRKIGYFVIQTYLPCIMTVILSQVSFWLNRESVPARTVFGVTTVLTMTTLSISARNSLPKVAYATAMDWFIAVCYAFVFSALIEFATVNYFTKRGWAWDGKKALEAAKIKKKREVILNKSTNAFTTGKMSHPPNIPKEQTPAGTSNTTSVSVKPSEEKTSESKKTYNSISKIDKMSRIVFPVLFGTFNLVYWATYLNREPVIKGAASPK
Assay: Binding affinity measured using LtK- cell membranes expressing Gamma-aminobutyric acid A receptor alpha-5-beta-3-gamma-2
assay-endpoint: Ki

Field: example entries. Status: answers known.
Cc1ccc(-c2nc3ccc(C)cn3c2CC(=O)N(C)C)cc1 = > 10000 nM
CCCOc1ccc2[nH]c3cnc(N)c(COC)c3c2c1 = 380 nM
CCOc1cc2c(cn1)[nH]c1ccccc12 = 868 nM
CC(C)Oc1cc2c(cn1)[nH]c1ccccc12 = > 10000 nM
CCc1c(OC)[nH]cc2nc3cc(OC)c(OC)cc3c1-2 = > 300 nM

Specify Ki for CCOC(=O)c1ncc2[nH]c3ccccc3c2c1COC and stop.
10.4 nM

Specify measured Ki for CCOC(=O)c1[nH]cc2nc3ccc(OC)cc3c-2c1COC .
4 nM

Please give the documented Ki of COCc1c(C(=O)OC(C)C)ncc2[nH]c3ccc(OCc4ccccc4)cc3c12
6 nM

Consider the molecule CCC(C)Oc1cc2c3ccccc3nc-2c[nH]1 (configuration not stated) . State its measured Ki.
> 10000 nM

Fill in Ki for record CCCOc1ccc2[nH]c3cnc(C(=O)OCC)c(COC)c3c2c1
2.4 nM

State, in one line, measured Ki of Cc1nnc2ccc(-c3cccc(C(F)(F)F)c3)nn12
561 nM

State its Ki for this molecule: CCCCOc1cc2c(cn1)[nH]c1ccccc12
1000 nM

###

Measured Ki, listed per entry for reference.
Molecular target: GABA-A receptor; alpha-6/beta-3/gamma-2 (Homo sapiens, UniProt P18507+P28472+Q16445)
Sequence (Q16445 whole entry, one chain of several): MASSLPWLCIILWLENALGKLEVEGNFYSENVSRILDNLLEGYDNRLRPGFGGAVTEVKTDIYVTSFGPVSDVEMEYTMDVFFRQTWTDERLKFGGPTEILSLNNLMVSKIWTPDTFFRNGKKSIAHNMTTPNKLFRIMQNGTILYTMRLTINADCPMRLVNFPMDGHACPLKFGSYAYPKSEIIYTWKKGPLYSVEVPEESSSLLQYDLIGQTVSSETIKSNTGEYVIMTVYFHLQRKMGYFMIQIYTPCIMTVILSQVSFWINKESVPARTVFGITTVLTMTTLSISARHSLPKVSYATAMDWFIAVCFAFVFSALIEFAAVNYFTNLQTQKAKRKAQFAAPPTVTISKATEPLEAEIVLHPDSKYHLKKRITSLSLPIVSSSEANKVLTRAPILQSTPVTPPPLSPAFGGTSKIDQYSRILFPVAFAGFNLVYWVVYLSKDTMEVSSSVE
Test: Binding affinity measured using LtK- cell membranes expressing Gamma-aminobutyric acid A receptor alpha-6-beta-3-gamma-2

CCCCOc1cc2c(cn1)[nH]c1ccccc12 = > 1000 nM

Let me know recorded Ki for Cc1ccc(-c2nc3ccc(C)cn3c2CC(=O)N(C)C)cc1 , thanks.
> 10000 nM

Note down Ki recorded for CCOc1cc2c(cn1)[nH]c1ccccc12
> 1000 nM

###

Target: GABA-A receptor; anion channel
Test: Displacement of [3H]flunitrazepam from GABA-A Benzodiazepine receptor of rat brain cortical membranes
assay-endpoint: pIC50
# pIC50: negative log10 of molar concentration; output just the value

Answered cases to consult:
CCCOc1ccc2c(c1)c1c(COC)c(C(=O)OCC)ncc1n2C = 6.54
CCCOc1ccc2[nH]c3cnc(C(=O)OC(C)C)c(COC)c3c2c1 = 7.51

Now take the following molecule into account.
Return value of pIC50 for input CCOC(=O)c1[nH]cc2nc3ccc(OCc4cccc5ccccc45)cc3c-2c1COC , no commentary.
7.26

###

Target: GABA-A receptor; anion channel
Assay: Displacement of [3H]flunitrazepam from GABA-A Benzodiazepine receptor of rat brain cortical membranes
Some compounds, each annotated with its measured pIC50.
// pIC50 here means minus log10 of the molar concentration (mol/L)

Worked cases, answers included:
COCc1c(N)[nH]cc2nc3ccc(OCc4ccccc4)cc3c1-2 = 6.57
COCc1c(/N=C(/S)OC)[nH]cc2nc3ccc(OCc4ccccc4)cc3c1-2 = 6.75
COCc1c(N=C=S)[nH]cc2nc3ccc(OCc4ccccc4)cc3c1-2 = 7.40
CCOC(=O)c1[nH]cc2nc3ccc(OC)cc3c-2c1COC = 9.00
CCCOc1ccc2[nH]c3cnc(C(=O)OCC)c(COC)c3c2c1 = 8.09

Please list pIC50 recorded for the compound CCOC(=O)c1[nH]cc2nc3ccc(OCc4cccc5ccccc45)cc3c-2c1CC
7.86

Query pIC50 for CCCCCCCCOc1ccc2[nH]c3cnc(C(=O)OCC)c(COC)c3c2c1
6.48

Input CCCOc1ccc2[nH]c3cnc(N)c(COC)c3c2c1 , output reported pIC50.
6.16

// fetch pIC50 given entry CCOC(=O)c1ncc2c(c1COC)c1cc(OCc3cccc4ccccc34)ccc1n2C
6.14

Please list pIC50 recorded for the compound CCCOc1ccc2[nH]c3cnc(N=C=S)c(COC)c3c2c1
7.61

Reference source: ChEMBL document CHEMBL1131013
